Give IC50 for every item shown.
experimental_system: melanocortin-4 receptor (Homo sapiens)
Construct: expressed in transfected cells; host or cells: HEK293 cells (membrane preparations)
Sequence (P32245 whole entry): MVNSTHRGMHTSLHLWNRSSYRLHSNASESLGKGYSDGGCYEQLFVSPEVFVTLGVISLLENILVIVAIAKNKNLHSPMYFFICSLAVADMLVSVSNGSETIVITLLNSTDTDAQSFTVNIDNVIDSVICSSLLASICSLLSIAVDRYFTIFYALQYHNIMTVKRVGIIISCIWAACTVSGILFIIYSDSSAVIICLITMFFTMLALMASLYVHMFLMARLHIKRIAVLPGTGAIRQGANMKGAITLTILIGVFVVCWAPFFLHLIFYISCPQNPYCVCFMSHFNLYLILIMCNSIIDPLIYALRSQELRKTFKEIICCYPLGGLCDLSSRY
experimental_details: Membrane binding assay (fluorescence polarization, competition with fluorescence labeled NDP-alpha-MSH)
condition_details: read-out: hMC-4R binding assay IC50/μM

# input GET /values?readout=IC50&item= `CC(C)CCN(CCC(C)C)C(=O)c1ccc2nc(-c3ccc(OCCO)nc3)c(CCCN3CCCC3)n2c1`
# output < 0.1 µM

# input GET /values?readout=IC50&item= COCC(C)NCCCc1c(-c2cccc(OC)c2)nc2ccc(C(=O)N(CCC(C)C)CCC(C)C)cn12 (stereo not shown)
# output > 1 µM

# input GET /values?readout=IC50&item= `CC(C)CCN(CCC(C)C)C(=O)c1ccc2nc(-c3nccs3)c(CCCN3CCCC3)n2c1`
# output < 0.1 µM

# input GET /values?readout=IC50&item= `CC(C)CCN(CCC(C)C)C(=O)c1ccc2nc(-c3cccc(C#N)c3)c(CN3CCC(N)CC3)n2c1`
# output 0.1 to 1 µM

# input GET /values?readout=IC50&item= `CC(C)CCN(CCC(C)C)C(=O)c1ccc2nc(-c3ccc(Cl)cc3)c(CCCCN3CCCC3)n2c1`
# output 0.1 to 1 µM

# input GET /values?readout=IC50&item= `COc1ccc(-c2nc3ccc(C(=O)N(CCC(C)C)CCC(C)C)cn3c2CN2CCC(N(C)C)CC2)c(OC)c1`
# output > 1 µM

# input GET /values?readout=IC50&item= `CC(C)CCN(CCC(C)C)C(=O)c1ccc2nc(-c3ccc(Cl)cc3)c(CN3C[C@H]4CNC[C@H]4C3)n2c1`
# output 0.1 to 1 µM
